target: human plasma kallikrein (Homo sapiens); construct: purchased Enzyme Research Laboratories HPKa 1303; test: Enzyme inhibition assay (fluorogenic substrate H-Pro-Phe-Arg-AMC); assay type: biochemical; details: Kallikrein inhibitory activity; 1 nM activated human kallikrein, 500 μM H-Pro-Phe-Arg-AMC, 1 hour room temperature; read-out: Avg. IC50
Sequence (P03952 20-390 limits assumed): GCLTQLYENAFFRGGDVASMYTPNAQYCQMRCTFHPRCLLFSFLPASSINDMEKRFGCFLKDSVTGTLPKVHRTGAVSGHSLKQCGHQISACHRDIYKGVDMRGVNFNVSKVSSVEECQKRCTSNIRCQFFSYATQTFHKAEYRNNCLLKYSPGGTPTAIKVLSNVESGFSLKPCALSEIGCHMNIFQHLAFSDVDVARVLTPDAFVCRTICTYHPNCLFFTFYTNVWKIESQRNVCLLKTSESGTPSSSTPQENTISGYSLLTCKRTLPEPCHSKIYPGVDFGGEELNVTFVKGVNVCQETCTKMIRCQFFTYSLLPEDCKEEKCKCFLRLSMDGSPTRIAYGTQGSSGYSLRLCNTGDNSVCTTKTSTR
Sequence (P03952 391-638 limits assumed): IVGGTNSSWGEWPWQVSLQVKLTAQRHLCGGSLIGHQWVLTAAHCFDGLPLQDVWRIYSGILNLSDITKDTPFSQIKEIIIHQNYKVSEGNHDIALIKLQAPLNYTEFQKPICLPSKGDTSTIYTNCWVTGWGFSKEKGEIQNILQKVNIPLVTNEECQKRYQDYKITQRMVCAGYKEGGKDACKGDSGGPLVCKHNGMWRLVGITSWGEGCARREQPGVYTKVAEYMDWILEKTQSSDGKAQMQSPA
pIC50: −log10 of the molar value. Numbered stars: 1 amine (or outer) side, 2 acyl side, 3 side chain; on linkers, the order of the positions; unused ones are H or OH. Bridge positions count the residues as written; N and C are the ends. Square brackets hold non-standard residues; d marks the D form. Peptide text beside a SMILES is read from it. Ala(1H-tetrazol-5-yl) = N[C@@H](Cc1nnn[nH]1)C(=O)O; NMeW = CN[C@@H](Cc1c[nH]c2ccccc12)C(=O)O; mXylylene = c1cc(C[*:1])cc(C[*:2])c1; Chg = N[C@H](C(=O)O)C1CCCCC1
endpoint: pIC50

Data request: Endpoint output: pIC50 of CC(=O)N[C@H]1CSCc2cccc(c2)CSC[C@@H](C(N)=O)NC(=O)[C@H](C)NC(=O)[C@H]([C@@H](C)O)NC(=O)[C@H](Cc2c[nH]c3ccccc23)NC(=O)[C@@H]2CCCN2C(=O)[C@H](CO)NC(=O)[C@H](Cc2c[nH]c3ccccc23)NC(=O)[C@H](Cc2ccc(O)cc2)NC(=O)[C@H](CC(N)=O)NC1=O [Compound R2136, [mXylyl(1,10)]Ac-CNYWSPWTAC-NH2] (Ac-CNYWSPWTAC-NH2; linker 1-10 via mXylylene) . Value?
Data returned: 8.21

Data request: Endpoint output: pIC50 of CC(C)(C)[C@H](NC(=O)[C@H](CCCNC(=N)N)NC(=O)[C@@H]1CCCc2cn(nn2)CCCCC(=O)N2CCC[C@H]2C(=O)N[C@@H](C2CCCCC2)C(=O)N1)C(N)=O . Value?
Data returned: < 4.00

Data request: Endpoint output: pIC50 of CC[C@H](C)[C@@H]1NC(=O)[C@H](CO)NC(=O)[C@H](Cc2nn[nH]n2)NC(=O)[C@@H](NC(=O)[C@@H](N)CCSC)CSCc2cccc(c2)CSC[C@@H](C(=O)N[C@@H](CCCNC(=N)N)C(=O)N[C@H](C(N)=O)C(C)C)NC1=O [Compound R2020, [mXylyl(2,6)]MC-Asp(T)-SICRV-NH2] (H-MC[Ala(1H-tetrazol-5-yl)]SICRV-NH2; linker 2-6 via mXylylene) . Value?
Data returned: 7.89

Data request: Endpoint output: pIC50 of CC(C)(C)[C@H](NC(=O)[C@H](CCCNC(=N)N)NC(=O)[C@@H]1CCOc2cccc(c2)OCCCC(=O)N2CCC[C@H]2C(=O)N[C@@H](C2CCCCC2)C(=O)N1)C(N)=O . Value?
Data returned: < 4.00

Data request: Endpoint output: pIC50 of CC(=O)N[C@H](C(=O)N[C@H]1CSCc2cccc(c2)CSC[C@@H](C(N)=O)NC(=O)[C@H](C)NC(=O)[C@H](C(C)C)NC(=O)[C@H](CCCNC(=N)N)NC1=O)C1CCCCC1 [Compound R2159, [mXylyl(2,6)]Ac-Chg-CR-V-AC-NH2] (Ac-[Chg]CRVAC-NH2; linker 2-6 via mXylylene) . Value?
Data returned: < 4.70

Data request: Endpoint output: pIC50 of CC(=O)N[C@@H](CS)C(=O)N[C@@H](CC(N)=O)C(=O)N[C@@H](Cc1ccc(O)cc1)C(=O)N[C@@H](Cc1c[nH]c2ccccc12)C(=O)N[C@@H](CO)C(=O)N1CCC[C@H]1C(=O)N(C)[C@@H](Cc1c[nH]c2ccccc12)C(=O)N[C@H](C(=O)N[C@@H](C)C(=O)N[C@@H](CS)C(N)=O)[C@@H](C)O [Compound R2236, Ac-CNYWSP-nMeW-TAC-NH2] (Ac-CNYWSP[NMeW]TAC-NH2) . Value?
Data returned: < 5.31
